testProtocol: Hydrolytic stability (HBS, pH 7.4, 37° C.)
Format: physicochemical
Experimental: A conjugate in which a drug to be delivered and a transporter are linked by a specifically cleavable or specifically releasable linker will have a half-life. The term “half-life” in this context refers to the amount of time required for one half of the amount of conjugate to become dissociated to release the free drug. The “accelerated” (37° C.) hydrolytic half-lives of the conjugates ranged from 19 to 97 hours, extending well beyond the incubation times (≦20 minutes) used for cell assays. […]
Non-standard residues stand in square brackets, D forms with d. Residues, ends and D or L forms follow the SMILES beside them. *: point of attachment. X3 = O=C(OCCCS*)Oc1ccc(-c2cn3c(=O)c(Cc4ccccc4)nc-3c(Cc3ccccc3)[nH]2)cc1
measuredParameter: log10(half-life) (log10 of the value in h)
A value of 2 here means half-life of 100 in h, since values are log10.

Example entries begin here.
- compound: "CC(=O)N[C@H](CSSCCCC(=O)O[C@H]1C[C@H]2OC[C@@]2(OC(C)=O)[C@H]2[C@H](OC(=O)c3ccccc3)[C@]3(O)C[C@H](OC(=O)[C@H](O)[C@@H](NC(=O)c4ccccc4)c4ccccc4)C(C)=C([C@@H](OC(C)=O)C(=O)[C@]12C)C3(C)C)C(=O)N[C@H](CCCNC(=N)N)C(=O)N[C@H](CCCNC(=N)N)C(=O)N[C@H](CCCNC(=N)N)C(=O)N[C@H](CCCNC(=N)N)C(N)=O [3b, Taxol C7 ester tetraarginine conjugate]"
  log10(half-life): 1.83
- compound: "CC(=O)N[C@H](CSSCCOC(=O)O[C@@H](C(=O)O[C@H]1C[C@@]2(O)[C@@H](OC(=O)c3ccccc3)[C@@H]3[C@]4(OC(C)=O)CO[C@@H]4C[C@H](O)[C@@]3(C)C(=O)[C@H](OC(C)=O)C(=C1C)C2(C)C)[C@@H](NC(=O)c1ccccc1)c1ccccc1)C(=O)N[C@H](CCCNC(=N)N)C(=O)N[C@H](CCCNC(=N)N)C(=O)N[C@H](CCCNC(=N)N)C(=O)N[C@H](CCCNC(=N)N)C(N)=O [4b, Taxol C2′ tetraarginine conjugate]"
  log10(half-life): 1.41
- compound: "CC(=O)N[C@H](CSSCCCOC(=O)Oc1ccc(-c2cn3c(=O)c(Cc4ccccc4)nc-3c(Cc3ccccc3)[nH]2)cc1)C(=O)N[C@H](CCCNC(=N)N)C(=O)N[C@H](CCCNC(=N)N)C(=O)N[C@H](CCCNC(=N)N)C(=O)N[C@H](CCCNC(=N)N)C(=O)N[C@H](CCCNC(=N)N)C(=O)N[C@H](CCCNC(=N)N)C(=O)N[C@H](CCCNC(=N)N)C(=O)N[C@H](CCCNC(=N)N)C(N)=O [compound 6, Coelenterazine octaarginine conjugate] (Ac-[dC](X3)[dR][dR][dR][dR][dR][dR][dR][dR]-NH2)"
  log10(half-life): -0.93
- compound: "CC(=O)N[C@H](CSSCCCC(=O)O[C@@H](C(=O)O[C@H]1C[C@@]2(O)[C@@H](OC(=O)c3ccccc3)[C@@H]3[C@]4(OC(C)=O)CO[C@@H]4C[C@H](O)[C@@]3(C)C(=O)[C@H](OC(C)=O)C(=C1C)C2(C)C)[C@@H](NC(=O)c1ccccc1)c1ccccc1)C(=O)N[C@H](CCCNC(=N)N)C(=O)N[C@H](CCCNC(=N)N)C(=O)N[C@H](CCCNC(=N)N)C(=O)N[C@H](CCCNC(=N)N)C(N)=O [2b, Taxol C2′ ester tetraarginine conjugate]"
  log10(half-life): 1.28

Exercise: Endpoint output: log10(half-life) of CC(=O)N[C@H](CSSCCCCOC(=O)Oc1ccc2nc(C3=N[C@@H](C(=O)O)CS3)sc2c1)C(=O)N[C@H](CCCNC(=N)N)C(=O)N[C@H](CCCNC(=N)N)C(=O)N[C@H](CCCNC(=N)N)C(=O)N[C@H](CCCNC(=N)N)C(=O)N[C@H](CCCNC(=N)N)C(=O)N[C@H](CCCNC(=N)N)C(=O)N[C@H](CCCNC(=N)N)C(=O)N[C@H](CCCNC(=N)N)C(N)=O [compound 7, Luciferin octaarginine conjugate] . Value?
Key: 1.48
